Tested target: Gsx2 167-305 (Mus musculus, UniProt P31316 167-305)
Sequence (P31316 167-305): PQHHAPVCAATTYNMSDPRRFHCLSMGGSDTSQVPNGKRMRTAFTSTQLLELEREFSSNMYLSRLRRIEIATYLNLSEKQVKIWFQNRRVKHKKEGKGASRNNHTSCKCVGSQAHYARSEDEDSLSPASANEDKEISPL
Procedure details: ITC
Measured attribute: Kd (nM)
Answers are plain numbers, in nM.

Query string: Let me know recorded Kd for TAATGG (common Q50) monomer site 15mer (dsDNA) DNA 1: TGAGCTAATGGAAGC DNA 2: AGCTTCCATTAGCTC , thanks.
Result string: 143
